Each item that follows carries a reported Molar enthalpy of transition or fusion.
test: Molar enthalpy of transition or fusion; conditions: Crystal 2; DSC
Recorded Endpoint: Molar enthalpy of transition or fusion (kcal/mol)

>>> df
                                   molecule  result_number
0  CCCCCCCCCCCCCCCCCC[NH2+]CCCCCCCCCCCCCCCCCC.[O-][Cl+3]([O-])([O-])[O-] [N-octadecyloctadecan-1-aminium perchlorate]           27.5
1  CCCCCCCC[NH2+]CCCCCCCC.O=[N+]([O-])[O-] [N-octyloctan-1-aminium nitrate]           12.8
2  CCCCCCCCCCCCCCCCCC[NH2+]CCCCCCCCCCCCCCCCCC.[Br-] [N-octadecyloctadecan-1-aminium bromide]           19.4
3  CCCCCCCCCC[NH2+]CCCCCCCCCC.O=P([O-])(O)O [N-decyldecan-1-aminium dihydrogen phosphate]           14.6
4  CCCCCCCCCC[NH2+]CCCCCCCCCC.[Br-] [N-decyldecan-1-aminium bromide]           9.08
5  CCCCCCCCCCCC[NH2+]CCCCCCCCCCCC.[O-][Cl+3]([O-])([O-])[O-] [N-dodecyldodecan-1-aminium perchlorate]           17.2
6  CCCCCCCCCCCCCCCCCC[NH2+]CCCCCCCCCCCCCCCCCC.[Cl-] [N-octadecyloctadecan-1-aminium chloride]           23.2

----------
details: Crystal 2; DTA
Recorded Endpoint: Triple point temperature (K)

                                    compound  result_number
 0  CCCCCCCCNCCCCCCCC.Cl [N-octyl-1-octaminium hydrochloride]          294.1
 1  CCCCCCCCCCCCCCCCCC[NH2+]CCCCCCCCCCCCCCCCCC.[Br-] [N-octadecyloctadecan-1-aminium bromide]         371.15
 2  CCCCCCCCCCCC[NH2+]CCCCCCCCCCCC.O=P([O-])(O)O [N-dodecyldodecan-1-aminium dihydrogen phosphate]          363.1
 3  CCCCCCCCCC[NH2+]CCCCCCCCCC.O=P([O-])(O)O [N-decyldecan-1-aminium dihydrogen phosphate]          354.1
 4  CCCCCCCCCCCCCCCCCC[NH2+]CCCCCCCCCCCCCCCCCC.[Cl-] [N-octadecyloctadecan-1-aminium chloride]         364.35
 5  CCCCCCCCCCCC[NH2+]CCCCCCCCCCCC.O=[N+]([O-])[O-] [N-dodecyldodecan-1-aminium nitrate]          339.1
 6  CCCCCCCCCCCC[NH2+]CCCCCCCCCCCC.[Cl-] [N-dodecyldodecan-1-aminium chloride]          338.1
 7  CCCCCCCC[NH2+]CCCCCCCC.[I-] [N-octyloctan-1-aminium iodide]          271.1
 8  CCCCCCCCCC[NH2+]CCCCCCCCCC.O=[N+]([O-])[O-] [N-decyldecan-1-aminium nitrate]          333.1
 9  CCCCCCCCCCCCCCCCCC[NH2+]CCCCCCCCCCCCCCCCCC.[I-] [N-octadecyloctadecan-1-aminium iodide]         366.15
10  CCCCCCCCCCCCCCCCCC[NH2+]CCCCCCCCCCCCCCCCCC.[O-][Cl+3]([O-])([O-])[O-] [N-octadecyloctadecan-1-aminium perchlorate]         361.25
11  CCCCCCCC[NH2+]CCCCCCCC.O=P([O-])(O)O [N-octyloctan-1-aminium dihydrogen phosphate]          333.1
12  CCCCCCCCCCCC[NH2+]CCCCCCCCCCCC.[Br-] [N-dodecyldodecan-1-aminium bromide]          346.1
13  CCCCCCCCCC[NH2+]CCCCCCCCCC.[Cl-] [didecylammonium chloride]          321.1
14  CCCCCCCC[NH2+]CCCCCCCC.O=[N+]([O-])[O-] [N-octyloctan-1-aminium nitrate]          318.1
15  CCCCCCCCCC[NH2+]CCCCCCCCCC.[Br-] [N-decyldecan-1-aminium bromide]          330.1
16  CCCCCCCCCCCC[NH2+]CCCCCCCCCCCC.O=S(=O)([O-])O [N-dodecyldodecan-1-aminium hydrogen sulfate]          373.1
17  CCCCCCCCCCCC[NH2+]CCCCCCCCCCCC.[O-][Cl+3]([O-])([O-])[O-] [N-dodecyldodecan-1-aminium perchlorate]          335.1
18  CCCCCCCCCCCCCCCCCC[NH2+]CCCCCCCCCCCCCCCCCC.O=[N+]([O-])[O-] [N-octadecyloctadecan-1-aminium nitrate]         366.65
19  CCCCCCCCCCCC[NH2+]CCCCCCCCCCCC.[I-] [N-dodecyldodecan-1-aminium iodide]          338.1
20  CCCCCCCC[NH2+]CCCCCCCC.O=S(=O)([O-])O [dioctylammonium hydrogen sulfate]         463.15
21  CCCCCCCCCCCCCCCCCC[NH2+]CCCCCCCCCCCCCCCCCC.O=S(=O)([O-])O [N-octadecyloctadecan-1-aminium hydrogen sulfate]          355.1
22  CCCCCCCC[NH2+]CCCCCCCC.[Br-] [N-octyloctan-1-aminium bromide]          303.1
23  CCCCCCCC[NH2+]CCCCCCCC.[O-][Cl+3]([O-])([O-])[O-] [N-octyloctan-1-aminium perchlorate]          296.1
